inhibition by entry:
- SYSTEM_UNDER_TEST: Mannose-6-phosphate isomerase (Homo sapiens) (UniProt P34949)
- Sequence (P34949 whole entry, looked up): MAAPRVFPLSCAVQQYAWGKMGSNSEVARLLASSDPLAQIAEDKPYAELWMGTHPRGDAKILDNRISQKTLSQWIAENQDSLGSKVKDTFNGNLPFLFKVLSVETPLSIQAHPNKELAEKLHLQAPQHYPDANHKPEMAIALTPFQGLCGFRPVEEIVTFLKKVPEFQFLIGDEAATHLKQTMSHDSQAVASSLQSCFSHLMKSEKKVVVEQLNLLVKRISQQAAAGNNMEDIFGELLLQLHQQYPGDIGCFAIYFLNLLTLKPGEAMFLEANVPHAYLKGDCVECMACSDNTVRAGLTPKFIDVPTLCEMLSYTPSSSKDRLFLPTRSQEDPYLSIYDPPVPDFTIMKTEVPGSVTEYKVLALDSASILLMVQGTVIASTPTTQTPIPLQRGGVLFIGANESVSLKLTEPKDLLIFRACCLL
- ASSAY_NAME: MPI inhibition at elevated mannose 6-phosphate – biochemical, fluorescence intensity, high mannose 6-phosphate, primary screen (AID 1220)
- CONDITIONS_USED: recombinant PMI enzyme, coupled fluorescence intensity; at 20 µM; stronger effect = higher value
Screen size: about 190,000 compounds; about 1,300 (0.68%) were called active. For the sample, actives were picked, then their nearest neighbours and some compounds at random.
MEASURED_ENDPOINT: inhibition (%)

{"SMILES_STR": "C=CCN(CC=C)C(=S)Nc1ccc(OC)c(OC)c1", "SYSTEM_UNDER_TEST": "Mannose-6-phosphate isomerase (Homo sapiens) (UniProt P34949)", "DATA_VALUE": 20.1}
{"SMILES_STR": "CN(CC(=O)Nc1ccc(F)cc1)c1ccc(S(=O)(=O)N2CCCC2)cn1", "SYSTEM_UNDER_TEST": "Mannose-6-phosphate isomerase (Homo sapiens) (UniProt P34949)", "DATA_VALUE": 1.4}
{"SMILES_STR": "CCc1c(C(=O)Nc2ccc(OC)c(Cl)c2)[nH]c(C)c1C(C)=O", "SYSTEM_UNDER_TEST": "Mannose-6-phosphate isomerase (Homo sapiens) (UniProt P34949)", "DATA_VALUE": -0.2}
{"SMILES_STR": "CN(C)C(=S)Nc1ccc2c(c1)OCO2", "SYSTEM_UNDER_TEST": "Mannose-6-phosphate isomerase (Homo sapiens) (UniProt P34949)", "DATA_VALUE": 11.8}

* * *

inhibition by entry:
- SYSTEM_UNDER_TEST: Mannose-6-phosphate isomerase (Homo sapiens) (UniProt P34949)
- ASSAY_NAME: MPI inhibition at elevated mannose 6-phosphate – biochemical, fluorescence intensity, high mannose 6-phosphate, primary screen (AID 1220)
- CONDITIONS_USED: recombinant PMI enzyme, coupled fluorescence intensity; at 20 µM; stronger effect = higher value
Out of some 190,000 compounds screened, about 1,300 (0.68%) were called active. What follows is part of a selection rich in actives, with near analogues and random picks from the rest.
MEASURED_ENDPOINT: inhibition (%)

{"COMPOUND": "NC(=O)c1cc2ccccc2o/c1=N/NC(=O)c1cccs1", "MEASURED_ENDPOINT": "inhibition", "DATA_VALUE": 2.2}
{"COMPOUND": "Cc1cc(NC(=O)CCCC(=O)NCc2cccs2)no1", "MEASURED_ENDPOINT": "inhibition", "DATA_VALUE": 3.8}
{"COMPOUND": "COc1cc(/C=C(\\C#N)C(=O)c2c[nH]c3ccccc23)cc(OC)c1O", "MEASURED_ENDPOINT": "inhibition", "DATA_VALUE": 70}
{"COMPOUND": "COc1cc([C@H](Cc2ccccc2)NC(C)=O)oc(=O)c1", "MEASURED_ENDPOINT": "inhibition", "DATA_VALUE": 53.9}
{"COMPOUND": "COc1cc(/C=N/S(=O)(=O)CCc2ccccc2)ccc1O", "MEASURED_ENDPOINT": "inhibition", "DATA_VALUE": 14.1}
{"COMPOUND": "Cc1ccc(C(=O)CSc2n[nH]c(C)n2)cc1", "MEASURED_ENDPOINT": "inhibition", "DATA_VALUE": -0.9}
{"COMPOUND": "O=[N+]([O-])c1cc([N+](=O)[O-])c2c(=Nc3ccccc3)n(-c3ccccc3)n(O)c2c1", "MEASURED_ENDPOINT": "inhibition", "DATA_VALUE": 52.9}
{"COMPOUND": "CCN1C(=O)/C(=C/c2ccc(C)o2)N(C)C1=S", "MEASURED_ENDPOINT": "inhibition", "DATA_VALUE": 28}
{"COMPOUND": "COCCCNC(=O)Cn1cnc2sc(C)c(S(=O)(=O)N3CCN(c4ncccn4)CC3)c2c1=O", "MEASURED_ENDPOINT": "inhibition", "DATA_VALUE": 9.4}
{"COMPOUND": "Cc1nc(SCC(=O)c2ccc(F)cc2)n[nH]1", "MEASURED_ENDPOINT": "inhibition", "DATA_VALUE": 12.9}
{"COMPOUND": "CN(Cc1ccon1)C(=O)CC1C(=O)NCCN1CC(C)(C)C (configuration not stated)", "MEASURED_ENDPOINT": "inhibition", "DATA_VALUE": 35.3}
{"COMPOUND": "Cc1c2c(nc3c(C(=O)NC4CC4)cnn13)CCCC2", "MEASURED_ENDPOINT": "inhibition", "DATA_VALUE": -0.9}
{"COMPOUND": "COc1ccccc1Cn1c(/C=C/c2ccccc2)nc2ccccc21", "MEASURED_ENDPOINT": "inhibition", "DATA_VALUE": 4.9}
{"COMPOUND": "N#CC1=C(N)C(C#N)(C#N)C(c2cccnc2)C2CC(c3ccccc3)CC=C12 (configuration not stated)", "MEASURED_ENDPOINT": "inhibition", "DATA_VALUE": 47.2}
{"COMPOUND": "CN(C)c1ccc(/C(=N\\O)c2ccccc2)cc1", "MEASURED_ENDPOINT": "inhibition", "DATA_VALUE": 5.9}
{"COMPOUND": "Cc1ccc(OCCN(C)C(=O)CC2C(=O)NCCN2CC(C)(C)C)cc1 (configuration not stated)", "MEASURED_ENDPOINT": "inhibition", "DATA_VALUE": 41.2}
{"COMPOUND": "O=C(c1ccc2c3c(cccc13)CC2)C1CCCN(Cc2cccnc2)C1 (configuration not stated)", "MEASURED_ENDPOINT": "inhibition", "DATA_VALUE": 11.4}
{"COMPOUND": "O=C(Cc1ccccc1)N/N=C/c1cccs1", "MEASURED_ENDPOINT": "inhibition", "DATA_VALUE": 4.5}
{"COMPOUND": "COc1ccccc1CNC(=O)COc1ccc([N+](=O)[O-])cc1", "MEASURED_ENDPOINT": "inhibition", "DATA_VALUE": 2.1}
{"COMPOUND": "O=[N+]([O-])c1cccc(-c2nc(N3CCOCC3)c3ccccc3n2)c1", "MEASURED_ENDPOINT": "inhibition", "DATA_VALUE": -8.1}
{"COMPOUND": "CC1=C(C#N)C(=O)NC(=O)/C1=C/c1ccc(-c2ccc(S(N)(=O)=O)cc2)o1", "MEASURED_ENDPOINT": "inhibition", "DATA_VALUE": 18.1}
{"COMPOUND": "CC1C(C#N)=C(N)OC2=C1C(=O)CC(c1ccccc1)C2 (configuration not stated)", "MEASURED_ENDPOINT": "inhibition", "DATA_VALUE": 10.5}
{"COMPOUND": "C/C(=N\\NC(=O)CN(c1ccccc1Br)S(C)(=O)=O)c1cccs1", "MEASURED_ENDPOINT": "inhibition", "DATA_VALUE": -17.2}
{"COMPOUND": "Cc1ccc(/C=C/C2=NN(C)C(=O)CC2)cc1", "MEASURED_ENDPOINT": "inhibition", "DATA_VALUE": -3.3}
{"COMPOUND": "COc1cc(/C=N/S(=O)(=O)CCc2ccccc2)cc(OC)c1O", "MEASURED_ENDPOINT": "inhibition", "DATA_VALUE": 61.1}
{"COMPOUND": "CSc1nc2ccccc2n1CC(=O)Nc1cc(C(F)(F)F)ccc1N1CCOCC1", "MEASURED_ENDPOINT": "inhibition", "DATA_VALUE": -1.6}
{"COMPOUND": "Cc1nn(C)c(C)c1CS(=O)(=O)c1ccccc1", "MEASURED_ENDPOINT": "inhibition", "DATA_VALUE": 2.6}
{"COMPOUND": "COCCNC(=O)/C(C#N)=C/c1cc(Br)c(O)c(OC)c1", "MEASURED_ENDPOINT": "inhibition", "DATA_VALUE": 15.5}
{"COMPOUND": "Nc1nc(-c2ccc(Cl)cc2)c(S(=O)(=O)c2ccccc2)s1", "MEASURED_ENDPOINT": "inhibition", "DATA_VALUE": -1.5}
{"COMPOUND": "N#CC1=C(N)OC2=C(C(=O)CC(c3ccccc3)C2)C1c1ccoc1 (configuration not stated)", "MEASURED_ENDPOINT": "inhibition", "DATA_VALUE": -1.4}
{"COMPOUND": "O=C(c1ccc2c3c(cccc13)CC2)C1CCCN(Cc2ccncc2)C1 (configuration not stated)", "MEASURED_ENDPOINT": "inhibition", "DATA_VALUE": -2.1}
{"COMPOUND": "COc1cc(/C=C(\\C#N)C(=O)c2c(C)[nH]c3ccccc23)cc(OC)c1OC", "MEASURED_ENDPOINT": "inhibition", "DATA_VALUE": 10.2}
{"COMPOUND": "CCOC(=O)N1CCC2(CC1)C(C#N)=C(N)Oc1c2c(C)nn1-c1cccc(Cl)c1", "MEASURED_ENDPOINT": "inhibition", "DATA_VALUE": -99.5}
{"COMPOUND": "CC1=C(C#N)C(=O)NC(=O)/C1=C\\c1ccc(-c2cc(C)c(C)cc2[N+](=O)[O-])o1", "MEASURED_ENDPOINT": "inhibition", "DATA_VALUE": 52.8}
{"COMPOUND": "Cc1cc2nc(CS(=O)(=O)c3ccccc3)cc(=O)n2[nH]1", "MEASURED_ENDPOINT": "inhibition", "DATA_VALUE": 0.1}
{"COMPOUND": "Cc1cc2nc(-c3ccc(SCC(=O)Nc4nccs4)nc3)[nH]c2cc1C", "MEASURED_ENDPOINT": "inhibition", "DATA_VALUE": -0.3}
{"COMPOUND": "CCc1ccc(N=c2c([N+](=O)[O-])nn(-c3ccccc3)n2O)cc1", "MEASURED_ENDPOINT": "inhibition", "DATA_VALUE": 2.1}

The reported numbers originate from PubChem BioAssay AID1220.
